ASSAY OVERVIEW: Cellular viability qHTS for adrenocortical cancer (ACC) cell line NCI-H295R (AID 1963990); further: nearly all actives have a fitted effect of over 60% in size
EXPERIMENTAL SETUP: CellTiter-Glo ATP luminescence, 48 h; series mostly up to 46.1 µM
Results filed as inconclusive are left out. Active and inactive are the calls of the source. The call rests on the fitted dose curve; in most records, active means well fitted cell-killing curve with a large enough effect; inconclusive means small, poorly fitted or top-dose-only effect; inactive means flat fitted curve, though single readings scatter.
Possible outcomes: active, inactive

>>> label_class("Cn1c(=O)c2[nH]cnc2n(C)c1=O")
"inactive"
>>> label_class("c1ccc(CNCc2ccc(CN3CCCNCCNCCCNCC3)cc2)nc1")
"inactive"
>>> label_class("O=c1[nH]cc(F)c(=O)[nH]1")
"inactive"
>>> label_class("CC(C)(C)NCC(O)c1ccc(O)c(CO)c1 (configuration not stated)")
"inactive"
>>> label_class("CCN(C)C(=O)Oc1cccc([C@H](C)N(C)C)c1")
"inactive"
>>> label_class("FC(F)(F)c1ccccc1-n1ccnc1")
"inactive"
>>> label_class("Cc1ncc([N+](=O)[O-])n1CC(C)O (configuration not stated)")
"inactive"
>>> label_class("OCC(CO)N[C@H]1C[C@](O)(CO)[C@@H](O)[C@H](O)[C@H]1O")
"inactive"
>>> label_class("Cc1cc(OCCCc2c3n(c4c(-c5c(C)nn(C)c5C)c(Cl)ccc24)[C@H](C)CN(c2cn(C)c4ccc(C(=O)O)cc24)C3=O)cc(C)c1Cl")
"active"
>>> label_class("CC(N=C(NC#N)Nc1ccncc1)C(C)(C)C (configuration not stated)")
"inactive"
>>> label_class("N[C@@H](Cc1c[nH]c2ccc(O)cc12)C(=O)O")
"inactive"
>>> label_class("COC(=O)C1=C(C)NC(COC(N)=O)=C(C(=O)OC(C)C)C1c1cccc(Cl)c1Cl (configuration not stated)")
"active"
